test: qHTS for Inhibitors of human tyrosyl-DNA phosphodiesterase 1 (TDP1): qHTS in cells in absence of CPT; details: DT40 Tdp1-/- hTDP1 cells, no CPT, ATP luminescence, 48 h; also: nearly all actives have a fitted effect of over 55% in size
Out of some 420,000 compounds screened, about 64,000 (15%) were called active. Inconclusive results (about 27%) are left out. Calls follow the shape of the dose curve; as a rule, active = well fitted inhibition curve with a large enough effect; inconclusive = small, poorly fitted or top-dose-only effect; inactive = flat fitted curve, though single readings scatter. These entries were drawn from the full list.
Classes used: Yes for active, No for inactive

Molecule: Cc1ccc(S(=O)(=O)NC2CCCCCC2)cc1C(N)=O
Classification: No

Molecule: C=CCn1c(SCc2cc(C(=O)OC)c(C)o2)nnc1-c1ccncc1
Classification: No

Molecule: Cc1cccc(NC(=O)COC(=O)c2ccccc2OCc2cccc(Br)c2)c1
Classification: Yes

Molecule: Cc1cccc(NS(=O)(=O)c2ccc(C)c(C(=O)NCc3cccnc3)c2)c1
Classification: No

Molecule: CCCCCN1CC(O)=C(c2ccccc2)C1=N
Classification: No

Molecule: O=C(c1ccccc1)N1CCN(C(=O)N2CCCCC2)CC1
Classification: No

Molecule: Cc1ccc(C(=O)Nc2ccccc2-c2ccccc2)cc1S(=O)(=O)Nc1ccccc1
Classification: Yes

Molecule: Cc1cccc(C(=O)OCC(=O)Nc2ccc(F)cc2)c1
Classification: No

Molecule: O=C(O)c1ccc(F)c(S(=O)(=O)Nc2ccccc2)c1
Classification: No

Molecule: Cc1ccc(C)c(NC(=O)CCC(=O)N/N=C2/CC(=O)CC(C)(C)C2)c1
Classification: No

Molecule: Cc1ccc(C(=O)Nc2ccc(C(=O)O)cc2)cc1S(=O)(=O)Nc1ccccc1
Classification: No

====

test: qHTS for Inhibitors of human tyrosyl-DNA phosphodiesterase 1 (TDP1): qHTS in cells in absence of CPT; conditions: DT40 Tdp1-/- hTDP1 cells, no CPT, ATP luminescence, 48 h; also: nearly all actives have a fitted effect of over 55% in size
The whole screen tested about 420,000 compounds, of which about 64,000 (15%) were called active. Inconclusive results (about 27%) are left out. The call rests on the fitted dose curve; in most records, active means well fitted inhibition curve with a large enough effect; inconclusive means small, poorly fitted or top-dose-only effect; inactive means flat fitted curve, though single readings scatter. These entries were drawn from the full list.
Possible outcomes: T = active, F = inactive

Compound: Cc1cc2ccccn2c1C(=O)c1cccc(S(=O)(=O)N2CCOCC2)c1
Classification: T
//
Compound: Cc1nc2sc(C(c3ccco3)N3CCC4(CC3)OCCO4)c(O)n2n1 (configuration not stated)
Classification: F
//
Compound: CCN1CCN(CC(=O)Nc2sc3c(c2C#N)CCC3)CC1
Classification: F
//
Compound: CC(Oc1ccccc1[N+](=O)[O-])C(=O)N/N=C/c1ccoc1 (configuration not stated)
Classification: F
//
Compound: CCN(CC(=O)Nc1c(F)cccc1F)C(=O)c1ccc(S(=O)(=O)N2CCCCC2)cc1
Classification: F
//
Compound: O=C(Nc1ccc(S(=O)(=O)Nc2nccs2)cc1)c1cccc(S(=O)(=O)N2CCOCC2)c1
Classification: F
//
Compound: Cc1csc2nc(O)c(C(=O)NCCN3CCOCC3)c(=O)n12
Classification: F
//
Compound: O/N=C1\CC2(Cc3nonc31)OCCO2
Classification: F
//
Compound: Cc1ccc(-n2c(SCC(=O)Nc3ccc4c(c3)OCO4)nnc2-c2ccccn2)cc1
Classification: F
//
Compound: Cc1cccc(C(=O)OCC(=O)Nc2sc3c(c2C#N)CCC3)c1
Classification: F
//
Compound: COc1ccc(C(=O)Nc2nc(-c3ccc(OC)cc3)c(-c3ccc([N+](=O)[O-])cc3)s2)cc1
Classification: T
//
Compound: C=Cn1cc[n+](CC(=O)c2ccc(OC)c(OC)c2)c1
Classification: F
//
Compound: Cc1ccc(/C=C2\CCn3c2nc2cc(C(=O)O)ccc2c3=O)c(C)c1
Classification: F
//
Compound: Cc1nn(CC(=O)Nc2ccc3c(c2)OCO3)c(C)c1[N+](=O)[O-]
Classification: F
//
Compound: O=C(Nc1ccc(S(=O)(=O)N2CCCC2)cc1Cl)C1=COCCO1
Classification: F
//
Compound: COc1cc(C(=O)N2CCN(C/C=C/c3ccccc3)CC2)cc(OC)c1C
Classification: T
//
Compound: Cc1ccc(C)c(OCC(=O)Nc2sc3c(c2C#N)CCCC3)c1C
Classification: T
//
Compound: CCCc1cc(=O)[nH]c(SCC(=O)Nc2sc3c(c2C#N)CCCC3)n1
Classification: F
//
Compound: Oc1ccc2c(c1)OCC1c3cc4c(cc3OC21)OCO4 (configuration not stated)
Classification: F
//
Compound: COc1ccc(Br)cc1/C=N/NC(=O)c1cccc(S(=O)(=O)N2CCOCC2)c1
Classification: F
//
Compound: CCOC(=O)c1c(N)sc2c1CCCC2=O
Classification: F
//
Compound: CC(C)CN1CCNC(=O)C1CC(=O)N(C)CC1CCOCC1 (configuration not stated)
Classification: F
//
Compound: COc1ccc(C(=O)NC2CC2)cc1OC1CCN(Cc2ccc(SC)cc2)CC1
Classification: F
//
Compound: Oc1[nH]c2ccccc2c1N=Nc1c(F)c(F)c(F)c(F)c1F
Classification: T
//
Compound: CC(=O)c1c(C)[nH]c(C(=O)OCC(=O)Nc2sc3c(c2C#N)CCCC3)c1C
Classification: T
//
Compound: O=C(COc1ccc(S(=O)(=O)NCc2ccccc2)cc1)N1CCOCC1
Classification: F
//
Compound: Cc1cccc(N=Nc2c(O)[nH]c3ccc(F)cc23)c1
Classification: F
//
Compound: COCCNC(=O)C(OC(=O)c1cccs1)c1ccc(F)cc1 (configuration not stated)
Classification: F
//
Compound: NC(=O)CSc1nnc(-c2cccc(S(=O)(=O)N3CCOCC3)c2)o1
Classification: F
//
Compound: O=C(N/N=C/c1ccc([N+](=O)[O-])o1)c1cccc(S(=O)(=O)N2CCOCC2)c1
Classification: T
//
Compound: CC1(C)O[C@H]2CC(=O)OCC23[C@H]2CC[C@@]4(C)[C@H](c5ccoc5)OC(=O)[C@H]5O[C@]54[C@]2(C)C(=O)C[C@@H]13 (some centres not stated)
Classification: F
//
Compound: Cc1nc2ccc(NC(=O)c3cccc(S(=O)(=O)N4CCOCC4)c3)cc2s1
Classification: T
//
Compound: O=C(Nc1nsc(-c2ccccc2)n1)c1ccncc1
Classification: F
//
Compound: CCC1(CC)C(=O)C2=C3C1[C@H](C(=O)OC)C=C(C(=O)OC)C[C@H]3[C@H]1C(=O)N(Cc3ccccc3)C(=O)[C@H]1[C@H]2C (some centres not stated)
Classification: T
//
Compound: COC(=O)C1=C[C@@H](C(=O)OC)[C@@H]2C3=C(C(=O)[C@]2(C)NC(=O)c2ccccc2)[C@H](C)n2c(=O)n(C)c(=O)n2[C@@H]3C1
Classification: F
//
Compound: N#CCSc1nn(-c2ccc(F)cc2)c(=S)s1
Classification: F
//
Compound: Nc1nc(COC(=O)CCC(=O)c2ccc(Cl)cc2)nc(Nc2ccccc2)n1
Classification: F
//
Compound: Oc1[nH]c2ccc(Br)cc2c1N=Nc1nn[nH]n1
Classification: F
//
Compound: CC(=O)NC12CC3CC(C1)CC(C(=O)N1CCN(C(=O)c4ccco4)CC1)(C3)C2
Classification: F
//
Compound: COc1ccc(-n2c(SCC(=O)Nc3sc4c(c3C#N)CCCC4)nnc2-c2ccc(O)cc2)cc1
Classification: F
//
Compound: CCOC(=O)C1=CCC2C(=O)N(Cc3ccccc3)C(=O)C12 (configuration not stated)
Classification: F
//
Compound: COc1ccc(-c2[nH][nH]c(=O)c2NC(=O)c2ccc([N+](=O)[O-])cc2)cc1
Classification: F

====

experiment: qHTS for Inhibitors of human tyrosyl-DNA phosphodiesterase 1 (TDP1): qHTS in cells in absence of CPT; conditions: DT40 Tdp1-/- hTDP1 cells, no CPT, ATP luminescence, 48 h; also: nearly all actives have a fitted effect of over 55% in size
About 64,000 (15%) of roughly 420,000 compounds were called active. Another 27% or so got no clear call; they are omitted. The call rests on the fitted dose curve; in most records, active means well fitted inhibition curve with a large enough effect; inconclusive means small, poorly fitted or top-dose-only effect; inactive means flat fitted curve, though single readings scatter. A selection follows.
Outcome codes: active, inactive

Compound: CC(C)C[C@H](NC(=O)C1CC(=O)N(c2ccc3c(c2)OCCO3)C1)C(=O)NC1CCCC1 (stereo not given in full)
Classification: inactive
//
Compound: COc1ccc(C(=O)OCC(=O)Nc2ccc3[nH]c(=O)[nH]c3c2)c(OC)c1OC
Classification: inactive
//
Compound: Cc1ccc(C(=O)O)cc1N1C(=O)CCCC1=O
Classification: inactive
//
Compound: Cc1ccc2c(c1)N(C(=O)Nc1ccc(Br)cc1F)CCO2
Classification: inactive
//
Compound: COc1cc(/C=N\NC(=O)C2C(=O)NCC2c2ccccc2)cc(OC)c1O (stereo not given)
Classification: inactive
//
Compound: COc1ccc(C(=O)CSc2n[nH]c(N)n2)cc1
Classification: inactive
//
Compound: O=C(CSc1ncn[nH]1)NCc1ccc2c(c1)OCO2
Classification: inactive
//
Compound: CC(CCc1ccccc1)NC(=O)COC(=O)c1ccc(F)cc1 (stereo not given)
Classification: inactive
//
Compound: O=C(O)CCCCC(=O)O
Classification: inactive
//
Compound: CCCCNC(=O)OCCSCCS(=O)(=O)c1ccc(Cl)cc1
Classification: inactive
//
Compound: CCOc1ccc(NC(=O)CN(C)C(=O)CCSc2ccc(F)cc2)cc1OCC
Classification: inactive
//
Compound: CCc1cccc(C)c1NS(=O)(=O)c1cc(Br)cnc1N
Classification: active
//
Compound: O=C1OCCN1C(=O)[C@H]1[C@H](c2ccccc2)C(c2ccc(F)cc2)=NN1c1ccccc1
Classification: inactive
//
Compound: Cn1c(=O)[nH]c2c(c(C(=O)O)nn2C)c1=O
Classification: inactive
//
Compound: COc1cc(/C=N/NC(=O)c2cc(-c3ccccc3C)nc3ccccc23)cc(OC)c1O
Classification: active
//
Compound: COc1ccc(N2CCN(S(=O)(=O)c3cc(Br)cnc3N)CC2)cc1
Classification: inactive
//
Compound: O=C(NCc1ccco1)/C(=C/c1ccco1)NC(=O)c1ccccc1
Classification: inactive
//
Compound: COc1ccc(C(=O)CSc2nccc(=O)[nH]2)cc1
Classification: inactive
//
Compound: CC(NC(=O)c1ccccc1SCC(=O)N1CCCC1)c1ccccc1 (stereo not given)
Classification: inactive
//
Compound: Cn1ncc(Br)c1C(=O)NC1CCCC1
Classification: inactive
//
Compound: CCOc1ccc(N2CC(c3nc4ccccc4n3CCOc3ccc(OC)cc3)CC2=O)cc1 (stereo not given)
Classification: active
//
Compound: C/C(=N\NC(=O)c1ccc(CSc2nc(C)cc(C)n2)cc1)C1CCCCC1
Classification: inactive
//
Compound: CC1CN(C(=O)CCC(=O)NC2CCN(Cc3ccccc3)CC2)c2ccccc2O1 (stereo not given)
Classification: inactive
//
Compound: CCOc1ccc(NC(=O)[C@H](C)NC(=O)C2CC(=O)N(c3ccc(OC)cc3)C2)cc1 (stereo not given in full)
Classification: inactive
//
Compound: C[C@@H]1C(c2ccc(F)cc2)=NN(c2ccc(Br)cc2)[C@H]1C(=O)N1CCOC1=O
Classification: active
//
Compound: Nc1nnnn1/N=C/c1cccs1
Classification: inactive
//
Compound: COc1ccc(/C=C/c2ccnc3ccccc23)cc1OC
Classification: active
//
Compound: COc1cccc(C(=O)NCCS(=O)(=O)NCC2CCCO2)c1 (stereo not given)
Classification: inactive
//
Compound: COc1ccc(/C=C/c2ccccn2)cc1OC
Classification: active
//
Compound: COCCNC(=O)CSc1c(C)cnc2c1c(=O)n(C)c(=O)n2C
Classification: inactive
//
Compound: CC1(C)NC(=O)N(CCOc2cccc(Oc3ccccc3)c2)C1=O
Classification: inactive
//
Compound: Cc1ccc(N2CC(C(=O)Nc3ccc(N(C)C)cc3)CC2=O)cc1Cl (stereo not given)
Classification: inactive
//
Compound: O=S(=O)(Cc1nnnn1-c1ccc(Br)cc1)c1ccc(F)cc1
Classification: inactive
//
Compound: COc1cc(/C=C/c2ccc(/C=C/c3cc(OC)c(OC)c(OC)c3)cc2)cc(OC)c1OC
Classification: inactive
//
Compound: O=C1NC2(CCCCCC2)C(=O)N1CCS(=O)(=O)Oc1ccccc1
Classification: inactive
//
Compound: O=S(=O)(NCCS(=O)(=O)N1CCN(c2ccccc2)CC1)c1ccc(Cl)cc1
Classification: inactive
//
Compound: CCN(CC)C(=O)C(=O)c1cn(CC(=O)NCc2ccc3c(c2)OCO3)c2ccccc12
Classification: inactive
//
Compound: CC1(OC(=O)CCc2ccccc2)C(=O)C=C2C=C(c3ccc(C#N)cc3)N(CCc3ccccn3)C=C2C1=O (stereo not given)
Classification: inactive
//
Compound: CC1(C(=O)NCc2ccccc2)CN(S(C)(=O)=O)CC(=O)N1CC(F)(F)F (stereo not given)
Classification: inactive
//
Compound: O=C(O)C1CCCN1C1=NS(=O)(=O)c2ccccc21 (stereo not given)
Classification: inactive
//
Compound: C=CCC(NC(=O)Cc1ccccc1)C(=O)NCCC (stereo not given)
Classification: inactive
//
Compound: COc1cc(OC)c(/C=C/c2ccnc3ccccc23)c(OC)c1
Classification: active
//
Compound: CC(/C=N/NC(=O)c1cc(-c2ccc3ccccc3c2)n[nH]1)=C\c1ccco1
Classification: active
//
Compound: C=CCOc1ccc(/C=N/n2cncn2)cc1OC
Classification: inactive
//
Compound: CC(=O)c1ccc(NC(=O)CSc2c(C(C)C)cnc3c2c(=O)n(C)c(=O)n3C)cc1
Classification: active
